Sourced from patent US20150140169

- experimentalSystem: T1, alpha-s1 casein from Bos taurus
- T1 chain: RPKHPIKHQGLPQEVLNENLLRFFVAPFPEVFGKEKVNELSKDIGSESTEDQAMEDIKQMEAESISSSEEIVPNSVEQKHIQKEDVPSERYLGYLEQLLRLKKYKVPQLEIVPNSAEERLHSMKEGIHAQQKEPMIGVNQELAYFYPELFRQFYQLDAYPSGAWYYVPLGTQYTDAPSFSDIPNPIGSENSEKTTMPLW
recordedMetric: (αSN1-1)/(αSN1), 24 hours, 11° C.
Give only the figure.

protein	(αSN1-1)/(αSN1), 24 hours, 11° C.
camel chymosin variant #146 (Q288G) (protein) GKVAREPLTSYLDSQYFGKIYIGTPPQEFTVVFDTGSSDLWVPSIYCKSNVCKNHHRFDPRKSSTFRNLGKPLSIHYGTGSMEGFLGYDTVTVSNIVDPNQTVGLSTEQPGEVFTYSEFDGILGLAYPSLASEYSVPVFDNMMDRHLVARDLFSVYMDRNGQGSMLTLGAIDPSYYTGSLHWVPVTLQQYWQFTVDSVTINGVAVACVGGCQAILDTGTSVLFGPSSDILKIQMAIGATENRYGEFDVNCGNLRSMPTVVFEINGRDYPLSPSAYTSKDQGFCTSGFGGDNNSELWILGDVFIREYYSVFDRANNRVGLAKAI	2.3
camel chymosin variant #155 (D290Q) (protein) GKVAREPLTSYLDSQYFGKIYIGTPPQEFTVVFDTGSSDLWVPSIYCKSNVCKNHHRFDPRKSSTFRNLGKPLSIHYGTGSMEGFLGYDTVTVSNIVDPNQTVGLSTEQPGEVFTYSEFDGILGLAYPSLASEYSVPVFDNMMDRHLVARDLFSVYMDRNGQGSMLTLGAIDPSYYTGSLHWVPVTLQQYWQFTVDSVTINGVAVACVGGCQAILDTGTSVLFGPSSDILKIQMAIGATENRYGEFDVNCGNLRSMPTVVFEINGRDYPLSPSAYTSKDQGFCTSGFQGQNNSELWILGDVFIREYYSVFDRANNRVGLAKAI	2.5
camel chymosin variant #153 (D290L) (protein) GKVAREPLTSYLDSQYFGKIYIGTPPQEFTVVFDTGSSDLWVPSIYCKSNVCKNHHRFDPRKSSTFRNLGKPLSIHYGTGSMEGFLGYDTVTVSNIVDPNQTVGLSTEQPGEVFTYSEFDGILGLAYPSLASEYSVPVFDNMMDRHLVARDLFSVYMDRNGQGSMLTLGAIDPSYYTGSLHWVPVTLQQYWQFTVDSVTINGVAVACVGGCQAILDTGTSVLFGPSSDILKIQMAIGATENRYGEFDVNCGNLRSMPTVVFEINGRDYPLSPSAYTSKDQGFCTSGFQGLNNSELWILGDVFIREYYSVFDRANNRVGLAKAI	4.9

What (αSN1-1)/(αSN1), 24 hours, 11° C. value was documented for this protein, camel chymosin variant #147 (Q288H) (protein) GKVAREPLTSYLDSQYFGKIYIGTPPQEFTVVFDTGSSDLWVPSIYCKSNVCKNHHRFDPRKSSTFRNLGKPLSIHYGTGSMEGFLGYDTVTVSNIVDPNQTVGLSTEQPGEVFTYSEFDGILGLAYPSLASEYSVPVFDNMMDRHLVARDLFSVYMDRNGQGSMLTLGAIDPSYYTGSLHWVPVTLQQYWQFTVDSVTINGVAVACVGGCQAILDTGTSVLFGPSSDILKIQMAIGATENRYGEFDVNCGNLRSMPTVVFEINGRDYPLSPSAYTSKDQGFCTSGFHGDNNSELWILGDVFIREYYSVFDRANNRVGLAKAI ?
3.3
